Recorded inhibition, one value per entry.
- ASSAY NAME: inhibitors of the yeast RAM network, pilot screen, dse1pr::URA3 reporter, 5-FOA selection (AID 869);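 also: 0% = DMSO wells with no growth and 100% = 10 µM 1-NA-PP1 with full growth; RAM network block rescues cells from 5-FOA so hits raise OD615 growth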
- TEST CONTEXT: S. cerevisiae dse1pr::URA3 5-FOA growth, OD615, 2 d; at 10 µM; active compounds read high; strain carries analog-sensitive mutant Cbk1 kinase
All answers are understood in %, so give the number only.

Solved entries (count: 10):
CCN(CC)C(=O)C1CCN(S(=O)(=O)c2ccc(C3CNC(=O)C3)cc2)CC1 (stereo unspecified)	1.81
CCOC(=O)N1CCC(N2Cc3cccc(C(=O)Nc4ccc(OC)c(OC)c4)c3C2=O)CC1	2.03
C=CCn1c(SCC(=O)Nc2cc(C)nn2-c2ccccc2)nnc1C1CCCCC1	0.165
CCOC(=O)C1=C(C)NC(=O)NC1c1ccc(N(C)C)cc1 (stereo unspecified)	2.35
COCCn1c(SCC(=O)OCc2ccccc2)nc2c1c(=O)[nH]c(=O)n2C	0.815
O=C(NC1CCCc2ccccc21)C1CCN(c2c(N3CCCC3)c(=O)c2=O)CC1 (stereo unspecified)	1.51
Cc1ccc(OCC(=O)O)c(-n2nc3ccccc3n2)c1	2.7
CCOc1ccc(C2CC(=O)NC(SCC(=O)OC)=C2C#N)cc1 (stereo unspecified)	1.87
Cc1cccc(C)c1Nc1nc2ccccc2o1	1.97
CCN1CCN(Cc2nc3c(c(=O)n(C)c(=O)n3C)n2Cc2ccc(Cl)cc2Cl)CC1	0.615

# ---- query molecule ----
query: Entry "O=C(NCc1ccc2c(c1)OCO2)Oc1ccccc1" has what inhibition?
result: 1.32

====

- ASSAY NAME: growth suppression of PTEN-deleted HCT116, pilot screen, cell-based, HCT116 clonal line, CellTiter-Glo (AID 824);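 also: 0% = 20 µM Hyamine control and 100% = vehicle cell control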
- TEST CONTEXT: 60 h, at 10 µM, active compounds read low
Records with an inconclusive call do not appear.
Criterion: viability strictly less than 90%. Met: Y. Not met: N.

Check out these entries, answers already filled in.
CC1(C)CC2CC(C)(CN2C(=O)c2cc(-c3ccccc3O)on2)C1 (stereo not given)	Y
COc1cc(C2NC(=O)N(C)C3=C2C(=O)CCC3)cc(OC)c1OC (stereo not given)	N
CC(C)C(NS(=O)(=O)c1ccc2c(c1)oc(=O)n2C)C(=O)N1CCN(C2CCCCC2)CC1 (stereo not given)	N
COc1ccc(NC(=O)CCCC2=NS(=O)(=O)c3ccccc3N2)cc1	N

query: I wonder whether "COc1cccc(-c2nc(C(N)=O)c3[nH]c(=O)n(-c4cccc(Cl)c4)c3n2)c1OC" has viability below 90%. Can you tell?
result: Y

query: Record: "Cc1ccc(NC(=O)CN(c2cc(C)cc(C)c2)S(=O)(=O)c2c(C)noc2C)nc1"
result: Y

query: Param item: "CC(C)Oc1cc(O)c2c(=O)c(-c3ccc(O)cc3)coc2c1"
result: Y

query: Also check "COc1ccc(S(=O)(=O)Cc2ccc(C(=O)NCc3cccs3)o2)cc1"
result: Y

====

- ASSAY NAME: growth suppression of PTEN-deleted HCT116, pilot screen, cell-based, HCT116 clonal line, CellTiter-Glo (AID 824);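 also: 0% = 20 µM Hyamine control and 100% = vehicle cell control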
- TEST CONTEXT: 60 h, at 10 µM, active compounds read low
Records with an inconclusive call do not appear.
ASSAY ENDPOINT: viability (%)
Write the answer as a number in %, unit excluded.

O=C(c1cc(-c2ccccc2)nc2ccccc12)N1CCOCC1	90.8
COc1ccc(N2CCN(c3cc(C)c4ccc(O)cc4n3)CC2)cc1	79.8
O=C(Cn1cc2c(n1)CCCC2)Nc1ccccc1Cl	98.9
COc1ccc(OCc2nnc3n2N=C(c2ccc(OC)cc2)CS3)cc1	66.4
COc1ccc(NC(=O)CCS(=O)(=O)c2cccc3nonc23)c(OC)c1	93.8

Next up:
query: Quick check: viability of CC1CCc2nn(CC(=O)NCc3ccco3)cc2C1 (stereo unspecified) ?
result: 88.2

====

Each entry below carries its reported viability.
- ASSAY NAME: growth suppression of beta-catenin knockout HCT116, pilot screen, human colon tumor cells (AID 823);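 also: 0% = wells killed by 20 µM Hyamine and 100% = untreated DMSO cell wells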
- TEST CONTEXT: CellTiter-Glo, 60 h, at 10 µM, active compounds read low
Inconclusive results are not listed.
Provide only the numeric value, understood in %.

The following compounds have reported results that may help.
O=C1Nc2ccccc2C(O)(C(=O)NCc2ccco2)N1c1ccc(Cl)cc1 (stereo unspecified)	98.6
Cc1ccc2nc(NC(=O)CCNS(=O)(=O)c3cccs3)sc2c1	87
CC1=C(C)C(=O)N(CCC(=O)O)C1=O	95.3
Cc1noc(C(=O)N2CC3(C)CC2CC(C)(C)C3)c1Cl (stereo unspecified)	82.9
Cc1cc(Nc2ccc(F)cc2C)n2ncnc2n1	108

query: Given "COc1ccc(Cl)cc1N(CC(=O)Nc1ccc2c(c1)OCO2)S(C)(=O)=O" , state its recorded viability.
result: 92.6

====

- ASSAY NAME: viability gain of MRP-1-high H69AR cells under doxorubicin, pilot screen, MRP-1 activator project, CellTiter-Glo, duplicate (AID 807);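 also: compound pretreatment 18-22 h then 72 h combined with doxorubicin; 0% = doxorubicin alone and 100% = vehicle without doxorubicin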
- TEST CONTEXT: H69AR viability with doxorubicin, CellTiter-Glo luminescence; at 10 µM; active compounds read high
Let's look at some molecules and their measured viability increase.
Please reply with the bare figure in % and do not write the unit itself.

Cc1[nH]nc2c1/C(=N\O)CC(C)(C)C2	-2

Now, please, on to the next molecule.
query: For the molecule CCN(CC)c1ccc(NC(=O)Cn2cc3c(n2)CCC(C)C3)c(C)c1 (centres undefined) , what viability increase is on record?
result: 2.97

====

growth inhibition: recorded values
- ASSAY NAME: Restrictive medium S. cerevisiae growth inhibition, OD615, pilot screen of yeast lifespan reduction project, restrictive growth control (AID 706);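 also: modified DeaD lifespan yeast strain shifted to restrictive glucose medium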
- TEST CONTEXT: OD615, 48 h, at 10 µM, active compounds read high
The figure you give is taken to be in %; do not add the unit.

Consider the following illustrative entries.
O=C(O)CCCC(=O)N1CCN(c2nc(-c3ccccc3)c3ccccc3n2)CC1	-6.36
Cc1ccc(OCCNC(=O)c2ccccc2N)cc1	-18.1

query: growth inhibition lookup needed for "CN(C)Cc1nc2c([nH]1)c(=O)n(C)c(=O)n2C" , thanks.
result: -18

query: And for "Cc1cc(C)c2c(n1)nn1c(C)c(CCC(=O)NCc3ccco3)c(C)nc21" ?
result: 1.73

query: # iterate: "COCc1cc(C)nc2sc(C(=O)Nc3nccs3)c(N)c12"
result: 11.6

query: Another compound to check: "Cc1cc(C)n2c(SCC(=O)Nc3ccccc3)nnc2n1"
result: -9.43

query: Another compound: "COc1ccc(CSc2nncn2N)cc1Br"
result: 5.08

query: Input "O=C(NCc1ccccn1)c1cc2ccccn2n1"
result: 0.82

====

- ASSAY NAME: growth suppression of PTEN-deleted HCT116, pilot screen, cell-based, HCT116 clonal line, CellTiter-Glo (AID 824);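 also: 0% = 20 µM Hyamine control and 100% = vehicle cell control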
- TEST CONTEXT: 60 h, at 10 µM, active compounds read low
Inconclusive results are not listed.
Decide using viability alone. Strictly below 90%: true (1). Equal to or above 90%: false (0).

Check out these entries, answers already filled in.
CCn1c(CNC(=O)COC)nc2ccccc21	false (0)
C=CCn1c(=N)n(CC(O)COc2ccccc2OC)c2ccccc21 (stereo not given)	true (1)
CCCn1c(CN2CCN(C(=O)OCC)CC2)nc2c1c(=O)n(C)c(=O)n2C	true (1)
COc1cc(NC(=O)c2onc(C)c2Cl)c(OC)cc1Cl	false (0)

query: Lab note: viability threshold 90%. Does this compound come in strictly under it? "O=C(Cn1ncc2c(=O)oc3ccccc3c21)N1CCc2ccccc2C1"
result: false (0)

query: Now consider "CCC(=O)N1CCc2cc(Br)cc(S(=O)(=O)NCCN3CCOCC3)c21" .
result: false (0)

query: What about this compound? "Cc1nc(N2CCN(C(=O)c3ccco3)CC2)c2c3c(sc2n1)CCC3"
result: true (1)

query: Try this compound too: CC1CCCCN1CCCNC(=O)C1CCN(c2nc3ccccc3o2)CC1 (stereo not given)
result: false (0)

query: For COc1ccc2ccccc2c1C1CC(=O)N2CN(C3CCCCC3)CSC2=C1C#N (stereo not given) then?
result: true (1)

query: Next entry: CC(=O)c1ccc(NC(=O)C2CCCN2S(=O)(=O)c2cccc3cccnc23)cc1 (stereo not given)
result: false (0)

query: Then what about the compound "O=C(Cn1c(S(=O)(=O)Cc2ccccc2)nc2ccccc21)N1CCCCC1" ?
result: false (0)

query: Moving on to the next compound: OC(C#CCN1CCCC1)c1ccccc1 (stereo not given)
result: false (0)

====

- ASSAY NAME: OD615 S. cerevisiae growth inhibition, permissive medium, pilot counter-assay, permissive growth control for S. cerevisiae lifespan shortening project (AID 705)
- TEST CONTEXT: OD615, 24 h, at 10 µM, active compounds read high
Recorded measurements of growth inhibition, one per entry
Numbers only here, please. The scale is %.

A selection of reference data follows.
CC(=O)NC(CCS(C)(=O)=O)C(=O)Nc1cc(C)ccc1C (stereo not drawn)	-10.6
COc1ccc(C2C(C(=O)Nc3cccc(C)n3)c3ccccc3C(=O)N2C)cc1OC (stereo not drawn)	5.62
CCCCn1cc(C(C)(C)C)c(C#N)c1NC(C)=O	-21.7
Cc1ccc(Cn2nnc3c(=O)n(Cc4ccccc4C)cnc32)cc1	1.6

query: I'd like to know its growth inhibition. The compound in question is "CCOC(=O)c1c(C)c(-c2ccccc2)n(CC(=O)N2CCN(C)CC2)c1C"
result: -19

query: Please give the result for CC(C)(C)C1(C)OC(C(N)=O)C(C(N)=O)O1 (stereo not drawn) too.
result: -7.22

query: Moving on to the next compound: "c1nc(N2CCNCC2)c2sc3nc(N4CCOCC4)c4c(c3c2n1)CCC4"
result: -0.055

query: // query: "N#Cc1cccc(NC(=O)CC2CCCCC2)c1"
result: -1.48

query: How about this compound: "Cc1ccc(N2CCN(S(=O)(=O)c3ccc(F)cc3)CC2)c(C)c1"
result: -0.375

Data origin, for the record: PubChem BioAssay
